test system: Vero E6 infected with SARS-CoV-2; assay: inhibition of SARS-CoV-2 cytopathic effect; higher = more antiviral protection, active = above 15; conditions: 100 nM; 48 h
// values below are reported inhibition of SARS-CoV-2 cytopathic effect
Number in %, nothing else.

[[record]]
molecule = "c1cc2c3c(c1)c1c(n3CCNC2)CCCC1"
target = "Vero E6 infected with SARS-CoV-2"
units_symbol = "%"
numeric_readout = 0.6

[[record]]
molecule = "O=C(O)CCc1ccc(NCc2cccc(Oc3ccccc3)c2)cc1"
target = "Vero E6 infected with SARS-CoV-2"
units_symbol = "%"
numeric_readout = -1.51

[[record]]
molecule = "OC[C@H]1O[C@@H](n2cnc3c(N[C@H]4CCC[C@@H]4O)ncnc32)[C@H](O)[C@@H]1O"
target = "Vero E6 infected with SARS-CoV-2"
units_symbol = "%"
numeric_readout = 3.63

[[record]]
molecule = "NS(=O)(=O)c1cc2c(cc1Cl)N=C(CSCc1ccccc1)NS2(=O)=O [benzthiazide]"
target = "Vero E6 infected with SARS-CoV-2"
units_symbol = "%"
numeric_readout = 0.52

[[record]]
molecule = "CCN(CCO)CCCC(C)Nc1ccnc2cc(Cl)ccc12 (centres undefined) [hydroxychloroquine]"
target = "Vero E6 infected with SARS-CoV-2"
units_symbol = "%"
numeric_readout = -0.76

[[record]]
molecule = "C[S+](CC[C@H](N)C(=O)O)C[C@H]1O[C@@H](n2cnc3c(N)ncnc32)[C@H](O)[C@@H]1O (some centres undefined)"
target = "Vero E6 infected with SARS-CoV-2"
units_symbol = "%"
numeric_readout = -2.58

[[record]]
molecule = "Cc1ncc(CO)c(CO)c1O"
target = "Vero E6 infected with SARS-CoV-2"
units_symbol = "%"
numeric_readout = -7.58

[[record]]
molecule = "OCc1cc(C(O)CNCCCCCCOCCCCc2ccccc2)ccc1O (centres undefined)"
target = "Vero E6 infected with SARS-CoV-2"
units_symbol = "%"
numeric_readout = 10.4

[[record]]
molecule = "CC(=O)CC(=O)O [lithium-acetoacetate]"
target = "Vero E6 infected with SARS-CoV-2"
units_symbol = "%"
numeric_readout = 1.48

[[record]]
molecule = "O=C(O)CCC(=O)O"
target = "Vero E6 infected with SARS-CoV-2"
units_symbol = "%"
numeric_readout = -1.13


// inhibition of SARS-CoV-2 cytopathic effect lookup, key: O=C(O)c1ccccc1Nc1cc(Cl)ccc1C(=O)O
0.37

Please give the measured inhibition of SARS-CoV-2 cytopathic effect for this molecule: Cn1c(CNc2ccc(C(=N)N)cc2)nc2cc(C(=O)N(CCC(=O)O)c3ccccn3)ccc21
-0.12

Reported inhibition of SARS-CoV-2 cytopathic effect, molecule CCCN1C[C@H](CSC)C[C@@H]2c3cccc4[nH]cc(c34)C[C@H]21 [pergolide] : ____
0.68

For the molecule CC(=C(CCOC(=O)C(C)C)SSC(CCOC(=O)C(C)C)=C(C)N(C=O)Cc1cnc(C)nc1N)N(C=O)Cc1cnc(C)nc1N (stereo in doubt) , what inhibition of SARS-CoV-2 cytopathic effect is on record?
3.99

What does the record list as inhibition of SARS-CoV-2 cytopathic effect for C=CC(=O)Nc1cccc(Nc2nc(Nc3ccc(OCCOC)cc3)ncc2F)c1 ?
0.54

Param item = C[C@]12C/C(=C/O)C(=O)C[C@@H]1CC[C@@H]1[C@@H]2CC[C@@]2(C)[C@H]1CC[C@]2(C)O ; retrieve measured inhibition of SARS-CoV-2 cytopathic effect.
1.73
